# assay-protocol: chemical genetic growth profiling, strain panel (AID 1159580);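 further: tested at 20 µM; growth read once vehicle control cultures reached saturation at 30 °C; 1 = growth at the plate median or of vehicle wells; lower values mean less growth of the strain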
# measurement-context: S. cerevisiae deletion strains, growth OD, locus YDR502C, strain sam2, active compounds read low
The whole screen tested about 5,500 compounds, of which about 2,000 (36%) were called active. About 18% were inconclusive and are not listed. Some of the results follow.
measure-name: normalized growth
Answer as a number with no unit attached.

I would be grateful if you could share the reported normalized growth for COc1ccc2c(c1)OCC(Cc1ccc(OC)c(OC)c1)C2=O (stereo unspecified) .
0.973

I would be grateful if you could share the reported normalized growth for C=C[C@@]1(C)CC(=O)[C@@]2(O)[C@](C)(O1)[C@@H](OC(C)=O)[C@@H](O)C1C(C)(C)CC[C@H](O)[C@@]12C (stereo partly specified) .
0.965

I would be grateful if you could share the reported normalized growth for c1ccc2c(CC3=NCCN3)cccc2c1 .
1.02

I would be grateful if you could share the reported normalized growth for CC(=O)NCCc1c[nH]c2ccc(O)cc12 .
0.985

I would be grateful if you could share the reported normalized growth for NCCCCNCCCN .
1.01

I would be grateful if you could share the reported normalized growth for CCCNC(=O)NS(=O)(=O)c1ccc(Cl)cc1 .
1.05

I would be grateful if you could share the reported normalized growth for O=C1CCCCC/C=C/CCCCCCCCO1 .
0.969

I would be grateful if you could share the reported normalized growth for COC1=CC(=O)OC(CCc2ccc(OC)c(OC)c2)C1 (stereo unspecified) .
1.01

I would be grateful if you could share the reported normalized growth for CCC(=O)OC1[C@@H]2CC3=C4CC(=O)O[C@@H](c5ccoc5)[C@]4(C)CCC3[C@@](C)(C2=O)[C@@H](CC(=O)OC)C1(C)C (stereo partly specified) .
1.02

I would be grateful if you could share the reported normalized growth for COC(=O)/C(C)=C\CC12OC(C)(C)C3CC(C=C4C(=O)c5c(OC)c6c(c(CC=C(C)C)c5OC431)OC(C)(CCC=C(C)C)C=C6)C2=O (stereo unspecified) .
0.979

I would be grateful if you could share the reported normalized growth for C[C@@H]1CC[C@H]2C(C)(C)C3CC12CC[C@@]3(C)O (stereo partly specified) .
0.924

====

# assay-protocol: chemical genetic growth profiling, strain panel (AID 1159580)
# measurement-context: S. cerevisiae deletion strains, growth OD, locus YER155C, strain BEM2, active compounds read low
In all, about 5,500 compounds went through this assay and about 2,000 (36%) were called active. Another 18% or so got no clear call; they are omitted. Some of the results follow.
For each of the compounds below, state its normalized growth.

I would be grateful if you could share the reported normalized growth for COC1=CC(=O)OC(CCc2ccc(OC)c(OC)c2)C1 (stereo not given) .
1.01 (inactive)

I would be grateful if you could share the reported normalized growth for COc1ccc2c(c1)OCC(Cc1ccc(OC)c(OC)c1)C2=O (stereo not given) .
0.999 (inactive)

I would be grateful if you could share the reported normalized growth for O=c1[nH]c(=O)n(C2C[C@H](O)[C@@H](CO)O2)cc1C(F)(F)F (stereo not given in full) .
0.984 (inactive)

I would be grateful if you could share the reported normalized growth for Cc1cccc(C)c1NC(=O)C1CCCCN1C (stereo not given) .
0.99 (inactive)

I would be grateful if you could share the reported normalized growth for COc1ccc2c(c1)OCC(Cc1ccc(OC)c(OC(C)=O)c1)C2=O (stereo not given) .
0.981 (inactive)

====

For each of the compounds below, state its normalized growth.
# assay-protocol: chemical genetic growth profiling, strain panel (AID 1159580);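 further: tested at 20 µM; growth read once vehicle control cultures reached saturation at 30 °C; 1 = growth at the plate median or of vehicle wells; lower values mean less growth of the strain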
# measurement-context: S. cerevisiae deletion strains, growth OD, locus YGL253W, strain hxk2, active compounds read low
The whole screen tested about 5,500 compounds, of which about 2,000 (36%) were called active. Not shown: some 18% with an inconclusive outcome. The list shows a part of the results.
Answer as a number with no unit attached.

I would be grateful if you could share the reported normalized growth for NC1(C(=O)O)CC1 .
1.04

I would be grateful if you could share the reported normalized growth for O=c1[nH]c(=O)n(C2C[C@H](O)[C@@H](CO)O2)cc1C(F)(F)F (stereo partly specified) .
0.972

I would be grateful if you could share the reported normalized growth for COc1c(C)c2c(c(O)c1C/C=C(\C)CCC(=O)O)C(=O)OC2 .
0.437

I would be grateful if you could share the reported normalized growth for CC(=O)C1CC[C@H]2C3CC[C@H]4C[C@H](O)CC[C@]4(C)C3CC[C@]12C (stereo partly specified) .
0.983

I would be grateful if you could share the reported normalized growth for CC(=O)C1CCC2C3CCC4C[C@H](O)CCC4(C)C3C[C@H](O)C12C (stereo partly specified) .
0.963

I would be grateful if you could share the reported normalized growth for COP(=S)(OC)Oc1ccc(Sc2ccc(OP(=S)(OC)OC)cc2)cc1 .
1

====

# assay-protocol: chemical genetic growth profiling, strain panel (AID 1159580);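 further: tested at 20 µM; growth read once vehicle control cultures reached saturation at 30 °C; 1 = growth at the plate median or of vehicle wells; lower values mean less growth of the strain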
# measurement-context: S. cerevisiae deletion strains, growth OD, locus YHR027C, strain rpn1, active compounds read low
Among all 5,500 compounds or so, about 2,000 (36%) were called active. Roughly 18% stayed inconclusive and do not appear here. The list shows a part of the results.
Rule: normalized growth below 1 gives Satisfied, anything at or above gives Not satisfied.

Criterion: normalized growth strictly below 1. Is it met by NCCCNCCSP(=O)(O)O ?
Satisfied

Criterion: normalized growth strictly below 1. Is it met by CC1CCC(NC(=O)N(CCCl)N=O)CC1 (centres undefined) ?
Satisfied

Criterion: normalized growth strictly below 1. Is it met by CN(C)CCC(c1ccccc1)c1ccccn1 (centres undefined) ?
Not satisfied

Criterion: normalized growth strictly below 1. Is it met by O=NN(CCCl)C(=O)NCCCl ?
Satisfied

====

# assay-protocol: chemical genetic growth profiling, strain panel (AID 1159580);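 further: tested at 20 µM; growth read once vehicle control cultures reached saturation at 30 °C; 1 = growth at the plate median or of vehicle wells; lower values mean less growth of the strain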
# measurement-context: S. cerevisiae deletion strains, growth OD, locus YKL068W
In all, about 5,500 compounds went through this assay and about 2,000 (36%) were called active. Not shown: some 18% with an inconclusive outcome. Cut-off read from the data, not from the text of the source: active = normalized growth mostly below about 0.91 (no sharp cut-off); inconclusive = no clear call, values can overlap the other calls; inactive = mostly above about 0.92. The list shows a part of the results.
Select the matching outcome among true (1) = active, false (0) = inactive

# lookup: test call for O=C(O)CCCCCCCC(=O)O
false (0)

# lookup: test call for OC[C@H]1O[C@@H](n2cnc3c(NCc4ccco4)ncnc32)[C@H](O)[C@@H]1O
false (0)

# lookup: test call for C[C@]12CCC3C(CC[C@H]4C[C@@H](O)CC[C@]34C)C1CC[C@@H]2O (stereo not given in full)
false (0)

# lookup: test call for CC(C)=CC1C(C(=O)OCc2cccc(Oc3ccccc3)c2)C1(C)C (stereo not given)
false (0)

# lookup: test call for C[C@]12CCC3c4ccc(O)cc4CCC3C1CCC2=O (stereo not given in full)
false (0)

# lookup: test call for CC(=O)C1CCC2C3CCC4C[C@H](O)CCC4(C)C3C[C@H](O)C12C (stereo not given in full)
false (0)

# lookup: test call for Fc1ccc([C@@H]2CCNC[C@H]2COc2ccc3c(c2)OCO3)cc1
false (0)

# lookup: test call for CCC(=O)OC1[C@@H]2CC3=C4CC(=O)O[C@@H](c5ccoc5)[C@]4(C)CCC3[C@@](C)(C2=O)[C@@H](CC(=O)OC)C1(C)C (stereo not given in full)
false (0)

# lookup: test call for NCCCC(=O)O
false (0)

# lookup: test call for O=C1CCCCC/C=C/CCCCCCCCO1
false (0)

# lookup: test call for CC12CCC3C(=CCc4cc(O)ccc43)C1CCC2=O (stereo not given)
false (0)

# lookup: test call for CC(=O)Oc1ccc2c(c1)CCC1C2CC[C@]2(C)C(=O)CCC12 (stereo not given in full)
false (0)

# lookup: test call for COC(=O)[C@@H]1OC(=O)C2OC23[C@@]1(C)CCC1[C@@]2(C)CCC(=O)C(C)(C)C2C[C@@H](OC(C)=O)[C@]13C (stereo not given in full)
false (0)

# lookup: test call for C[C@]12CCC3C(CC[C@H]4C[C@H](O)CC[C@]34C)C1CC[C@@H]2O (stereo not given in full)
false (0)

# lookup: test call for CC1[C@H](C)OC(=O)CC(O)CC(O)CC(O)CCC(O)C(O)C[C@]2(O)CC(O)C(C(=O)O)C(CC(OC3O[C@H](C)[C@@H](O)[C@H](N)[C@@H]3O)/C=C/C=C/C=C/C=C/CC/C=C/C=C/[C@H](C)[C@H]1O)O2 (stereo not given in full)
true (1)

# lookup: test call for CCC(C)C(=O)c1c(O)c(C)c2oc3c(C)c(O)c(C(=O)C(C)CC)c(O)c3c2c1O (stereo not given)
false (0)

# lookup: test call for NCCCCCC(=O)O
false (0)

# lookup: test call for NCCCCC(=O)O
false (0)

# lookup: test call for C[C@]12CCC3c4ccc(OC(=O)c5ccccc5)cc4CCC3C1CCC2=O (stereo not given in full)
false (0)

# lookup: test call for C=C[C@@]1(C)CC(=O)[C@@]2(O)[C@](C)(O1)[C@@H](OC(C)=O)[C@@H](O)C1C(C)(C)CC[C@H](O)[C@@]12C (stereo not given in full)
false (0)
